# Target: human GABAA α1β3γ2 receptor (Homo sapiens (Human), UniProt P14867+P18507)
# Procedure Summary: Radioligand binding assay, [3H]Flumazenil competition, γ2-containing GABAA subtypes
# Condition: HEK293F membranes, [3H]Flumazenil 1 nM, mean of two determinations; read-out: Ki h-GABAA α1β3γ2
Binning of Ki into classes: low = under 600 nM, mid = from 600 nM up to 1000 nM, high = 1000 nM and over

Here are 6 compounds together with their reported answers.
Cc1nnc2n1-c1ccc(C(F)F)c(Cl)c1C(c1c(F)cccc1F)=N[C@H]2C [Example 99]
high
C[C@@H]1N=C(c2ncccc2F)c2c(ccc(Br)c2Cl)-n2cnnc21 [Example 84]
high
C[C@@H]1N=C(c2c(F)cccc2F)c2c(ccc(C(F)(F)F)c2Cl)-n2c(CO)nnc21 [Example 103]
high
OC1N=C(c2ccccc2F)c2c(ccc(Br)c2Cl)-n2c(-c3cccnn3)nnc21 (centres unmarked) [Example 35]
high
C[C@@H]1N=C(c2c(F)cccc2F)c2c(ccc(Cl)c2Br)-n2c(-c3cnn(C)c3)nnc21 [Example 76]
low
COC[C@@H]1N=C(c2c(F)cccc2F)c2c(ccc(Br)c2Cl)-n2c(C)nnc21 [Example 100]
low

**Q:** Each compound maps to one class by Ki. Which class for Cc1cc(-c2nnc3n2-c2ccc(Cl)c(Cl)c2C(c2c(F)cccc2F)=N[C@H]3C)on1 [Example 87] ?
**A:** low

**Q:** Ok, now C[C@@H]1N=C(c2ncccc2F)c2c(ccc(Br)c2Cl)-n2c(C3CC3)nnc21 [Example 83]
**A:** mid

**Q:** Ok, now C[C@@H]1N=C(c2c(F)cccc2F)c2c(ccc(Cl)c2Br)-n2c(-c3ccn(C)n3)nnc21 [Example 81]
**A:** high

**Q:** Ok, now Cc1ccc(-c2nnc3n2-c2ccc(Cl)c(Br)c2C(c2c(F)cccc2F)=N[C@H]3C)nn1 [Example 88]
**A:** high

**Q:** Ok, now OC1N=C(c2c(F)cccc2F)c2c(ccc(Br)c2Cl)-n2cnnc21 (centres unmarked) [Example 31]
**A:** mid

**Q:** Ok, now CC[C@@H]1N=C(c2c(F)cccc2F)c2c(ccc(Br)c2Cl)-n2c(C)nnc21 [Example 98]
**A:** high

**Q:** Ok, now Cc1nnc2n1-c1ccc(Br)c(Cl)c1C(c1c(F)cccc1F)=N[C@H]2C [Example 75]
**A:** low

**Q:** Ok, now C[C@@H]1N=C(c2c(F)cccc2F)c2c(ccc(Cl)c2Cl)-n2c(-c3cnn(C)c3)nnc21 [Example 53]
**A:** low

---

Parameter: Fold increase h-GABA-A α2β2γ1 oocyte @ 30-fold Ki. Scope: all listed entries.
# Target: h-GABA-A α2β2γ1 (Homo sapiens (Human), UniProt P47869+Q8N1C3)
# Procedure Summary: Two-electrode voltage clamp electrophysiology in Xenopus oocytes expressing GABAA receptors
# Assay type: cell-based
# Condition: GABA EC20, test compound at about 30-fold its Ki α2β2γ1, at least 3 oocytes

Known results for molecules:
C[C@@H]1N=C(c2ncccc2F)c2c(ccc(Cl)c2Cl)-n2c(-c3cnn(C)c3)nnc21
1.69
C[C@@H]1N=C(c2ncccc2F)c2c(ccc(Cl)c2Cl)-n2c(-c3ccncn3)nnc21
2.43
C[C@@H]1N=C(c2c(F)cccc2F)c2c(ccc(Br)c2Cl)-n2cnnc21
1.56

Consider now this further molecule.
**Q:** Give Fold increase h-GABA-A α2β2γ1 oocyte @ 30-fold Ki (h-GABA-A α2β2γ1 (Homo sapiens (Human), UniProt P47869+Q8N1C3)) of the following molecule: Cc1ccc(-c2nnc3n2-c2ccc(Cl)c(Cl)c2C(c2c(F)cccc2F)=N[C@H]3C)nn1
**A:** 1.80
